Ref: PubChem BioAssay (NCI)

Test system: U251 CNS
Bench note: report the call from active, inactive

Tell me the recorded outcome of this test for c1cnn2ncc(-c3ccnc(NCCCN4CCOCC4)n3)c2c1 . inactive

New cases:
Each compound tested received a call. Report the one for O=C(Nc1ccc(OCc2nnc(-c3ccc(Cl)cc3)o2)c(F)c1)Nc1ccc(Cl)c(C(F)(F)F)c1 . inactive

Request: O=S(=O)(Nc1cc(Sc2cccc3cccnc23)c(O)c2ccccc12)c1ccc(F)cc1 inactive

Note, next up: O=C1NC(=O)C(N2C(=O)c3ccccc3C2=O)CC1O (centres undefined) inactive

And what about the compound O=C(OCc1ccc2ccccc2n1)c1cn(C2CC2)c2cc(N3CCN(Cc4ccc5ccccc5n4)CC3)c(F)cc2c1=O ? inactive

Also O=C1c2c(c3c4ccccc4[nH]c3c3ccc4ccccc4c23)C(=O)N1CCN1CCNCC1 ? inactive

Next entry: CC(C)C[C@H](NC(=O)CNC(=O)c1cc(Cl)ccc1Cl)B1OC(=O)CC(CC(=O)O)(C(=O)O)O1 (some centres undefined) active

Further, for O=C(/C=C/c1cc2ccccc2[nH]c1=O)/C=C/c1cc2ccccc2[nH]c1=O ? inactive

For O=C(/C=C\c1cccc([N+](=O)[O-])c1)/C=C/c1cccc([N+](=O)[O-])c1 then? inactive

###

System: A549 NSCLC
Experiment: NCI tumour cell line growth inhibition, 48 h
Assay Endpoint: TGI

Identify the measured TGI of Cc1ccc(/C=C/C(=O)C(C)(C)CN2CCCCC2)cc1 for A549 NSCLC. 33.1 µM

Please give TGI for each item listed below.
1. CCN(CC)CC1c2ccccc2C(CNc2ccccc2)N1C (stereo unspecified)
2. O=C(/C=C\c1cccc([N+](=O)[O-])c1)/C=C/c1cccc([N+](=O)[O-])c1
3. O=C(NC1CCCCC1)NS(=O)(=O)c1ccc2c(c1)CCC2
4. CC(=O)OC12C=C(C)C(C(C)C1)C1C(=O)N(CCN3CCOCC3)C(=O)C12 (stereo unspecified)
5. CN(C)c1ccc(C(Cc2ccccc2)C2NC(=S)NC2=O)cc1 (stereo unspecified)
6. C=CCN1C(=O)/C(=C/c2cccs2)N=C1SC/C=C/C
7. COc1cccc(OC)c1C(=O)OCc1ccccc1
8. COC(=O)c1onc(-c2c(OC)cc(OC)cc2OC)c1C(=O)OC

> 100 µM
12.2 µM
> 100 µM
> 100 µM
> 100 µM
> 100 µM
> 100 µM
> 100 µM

Dear colleague, could you send me TGI for each of the items below? Thanks.
1. NC(=O)c1csc(C2OC(CO)C(O)C2O)n1 (stereo unspecified)
2. O=C(/C=C/c1ccccc1)CCN1CCOCC1

1. > 10000 µM
2. 56.8 µM

###

Test system: SNB-75 CNS
Experiment: NCI tumour cell line growth inhibition, 48 h; in the data active = GI50 below about 0.43 µM; inactive = the rest
Result category, one only: active, inactive

Known results for compounds:
Kindly provide the recorded test outcome for the following compound: O=C1OCC2=C1C(c1ccc(Cl)c(Cl)c1)c1cc3c(cc1N2CCO)OCCO3 (configuration not stated) active

Then CN[C@@H](C)C(=O)N[C@H](C(=O)N1CCC[C@H]1C(=O)Nc1sc(-c2ncco2)nc1-c1ccccc1)C1CCCCC1 ? inactive

Follow-up item: O=C1c2cccnc2C(=O)c2c1c(C(=O)NCCCN1CCCCC1)c1ccccn21 inactive

Thanks! And CN1C(=O)N(C)C2C1NN=c1s/c(=C\c3ccc(C(F)(F)F)cc3)c(=O)n12 (configuration not stated) ? inactive

Ok, now Cc1ccc(/C=N\NC(=O)c2[nH]c3ccc(F)cc3c2-c2ccccc2)cc1 active

Others:
So what was the verdict on CCCN(CCS(C)(=O)=O)Cc1ccc(-c2ccc3ncnc(Nc4ccc(OCc5cccc(F)c5)c(Cl)c4)c3c2)o1 in this test? inactive

Also need O=C(OCc1ccc2ccccc2n1)c1cn(C2CC2)c2cc(N3CCN(Cc4ccc5ccccc5n4)CC3)c(F)cc2c1=O , thanks. inactive

###

Task for the reader: assign each of the following compounds its reported TGI.
Test system: A549 NSCLC
Assay: NCI tumour cell line growth inhibition, 48 h

Hello, I am looking for reported TGI with A549 NSCLC for N#Cc1sc2c(c1OC(=O)c1ccccc1)c(=O)n(-c1ccccc1)c(=S)n2-c1ccccc1 . Could you help? > 100 µM

And what about the compound Cc1ccc(/C=N\NC(=O)c2[nH]c3ccc(F)cc3c2-c2ccccc2)cc1 ? > 100 µM

Now the compound N#Cc1c(N2CCOCC2)nc(=S)[nH]c1-c1ccco1 > 100 µM

Thanks! And O=C1c2c(c3c4ccccc4[nH]c3c3ccc4ccccc4c23)C(=O)N1CCN1CCNCC1 ? 2.64 µM

Quick one: O=c1[nH]cc(-c2c[nH]c3ccccc23)nc1-c1c[nH]c2ccccc12 > 100 µM

Hi there! I need TGI for each item below, if you can.
1. CN1C(=O)N(C)C2C1NN=c1s/c(=C\c3ccc(C(F)(F)F)cc3)c(=O)n12 (configuration not stated)
2. Cc1ccc(-c2nnc(-c3nn(-c4ccccc4)c4nc5ccccc5nc34)o2)cc1
3. COc1cc2c(cc1C1COc3cc4occc4cc3C1=O)OCO2 (configuration not stated)
4. O=C(O)c1ccc(C(=O)c2ccccc2)c(C(=O)O)c1
5. Cc1cc(S(=O)(=O)Nc2nc3ccccc3nc2-c2cccc([N+](=O)[O-])c2)c(S)cc1Cl

> 100 µM
41.4 µM
> 100 µM
> 100 µM
38 µM

For the 4 compounds below, give their TGI values.
1. COc1ccc(-c2cc(-c3ccc(C)cc3)nc3nc(=S)[nH]c(N)c23)cc1
2. O=C(NNCC(O)COc1ccccc1)c1ccccc1 (configuration not stated)
3. Cc1n[nH]c(=O)n1N1C(=O)CCCC1=O
4. COc1ccc(C=O)c([N+](=O)[O-])c1

> 100 µM
> 100 µM
> 100 µM
> 100 µM

Would you mind listing TGI for each of the following compounds?
1. CCN1CCC(C)OP1(=O)Cc1ccccc1 (configuration not stated)
2. CCCP1(=O)C=C(C)C(=C(Cl)Cl)C(C)=C1 (configuration not stated)
3. CNCCCNCCCCNCCCN1C(=O)c2ccc3c4c(ccc(c24)C1=O)C(=O)N(CCCNCc1ccccc1OC)C3=O

["> 100 µM", "> 100 µM", "20.2 µM"]

Batch lookup, TGI per entry.
1. CC(=O)NC(CCCNC(=O)N(CCCl)N=O)C(=O)NCc1ccccc1 (configuration not stated)
2. O=[N+]([O-])c1nccn1CCCNc1ccnc2cc(Cl)ccc12
3. CSc1nc2c(c(=O)[nH]1)N=C(c1ccc([N+](=O)[O-])cc1)CC(c1ccccc1)N2 (configuration not stated)

1. > 100 µM
2. > 100 µM
3. > 100 µM

###

System: NCI-H226 lung
Experiment: NCI tumour cell line growth inhibition, 48 h
Assay Endpoint: TGI

As a guide, the following entries are already answered.
Look up TGI for this compound: CC#CCC1CCC(OCC)=CC1=O (stereo unspecified) > 100 µM

What about this compound? COc1cc(N2C(=O)[C@H](O)C2c2ccc(SC)cc2)cc(OC)c1OC (stereo partly specified) > 100 µM

Another: Cc1cc(C)c(-n2[nH]c(=O)n(C)c2=O)c(C)c1 > 100 µM

Look up TGI for the entries below, preserving their order.
1. CCOC(=O)c1c(C)nc2c1c(CN(C)C)c(O)c1[nH]c(C)c(C)nc12
2. COc1cc2c(c(OC)c1)/C(=C/Sc1ccccc1)C(=O)N(C(C)(C)C)C2
3. CC(=O)Nc1ccc(C(O)/C(=N/N)c2nc3ccc(Cl)cc3[nH]c2=O)cc1 (stereo unspecified)
4. CS(=O)(=O)OCC1CN(S(C)(=O)=O)c2cc(O)ccc21 (stereo unspecified)
5. CC(=O)/C=C/c1cn(C(=O)OC(C)(C)C)c2ccc(Br)cc12
6. N#CC1(C(N)=O)C(c2ccc(Cl)cc2)CC(=O)CC1c1ccc(Cl)cc1 (stereo unspecified)

1. 62.1 µM
2. > 100 µM
3. > 100 µM
4. 12.3 µM
5. 28.7 µM
6. 31.6 µM

Parameters: items (list). Returns: TGI for each item.
1. O=S(=O)(Nc1cc(Sc2cccc3cccnc23)c(O)c2ccccc12)c1ccc(F)cc1
2. C[n+]1ccc(/C2=C3\C=CC(=N3)/C(c3cc[n+](C)cc3)=c3/cc/c([nH]3)=C(\c3cc[n+](C)cc3)C3=N/C(=C(/c4cc[n+](C)cc4)C4C=CC2N4)C=C3)cc1
3. O=C1NC(=O)C(N2C(=O)c3ccccc3C2=O)CC1O (stereo unspecified)

1: 19 µM; 2: > 100 µM; 3: > 100 µM

Please report TGI for every entry that follows.
1. O=C1C(Cl)=C(Nc2ccc(S(=O)(=O)O)cc2)C(=O)c2ccccc21
2. NC(=O)c1csc(C2OC(CO)C(O)C2O)n1 (stereo unspecified)
3. CCOC(=O)/C(C=Nc1c(C)n(C)n(-c2ccccc2)c1=O)=C(/C)O
4. CC1=NNC(=O)C1C1CC(c2c[nH]c3ccccc23)=NNC1=O (stereo unspecified)

1: 61.9 µM; 2: > 9450 µM; 3: > 100 µM; 4: > 100 µM

State recorded TGI for all listed compounds.
1. COC(=O)[C@@H]1[C@H](OC(C)=O)CCC2[C@@]3(C[C@@H](c4ccoc4)O[C@@H]3OC)[C@H](C)CC[C@]21C(=O)OC (stereo partly specified)
2. O=C1OC(Cc2ccccc2)(N2CCCC2=O)C1c1ccccc1 (stereo unspecified)
3. Cc1ccccc1-n1c(=O)c2ncn(C3CCCO3)c2n(-c2ccccc2C)c1=S (stereo unspecified)
4. O=S(=O)(c1ccc(Cl)cc1)C(Cl)(Cl)Cl
5. OCC12C3C4C5C3C1C5C42 (stereo unspecified)

1: > 25 µM; 2: > 100 µM; 3: > 100 µM; 4: 21.9 µM; 5: > 100 µM
